Where these numbers come from: ChEMBL document CHEMBL1287767

experiment_notes: Solubility of the compound in 0.1 M phosphate buffer at 600 uM at pH 7.4 after 24 hrs by LC/MS/MS analysis
condition_description: 0.1 M phosphate buffer, pH 7.4
I'd appreciate it if you could supply solubility at 24 h, 600 µM values for the items below.

# solubility at 24 h, 600 µM lookup, item "CC[C@@H](C(N)=O)N1CCCC1=O"
> 500 µM

Thanks! And O=C(NCCN1CCOCC1)c1ccc(Cl)cc1 [MOCLOBEMIDE] ?
> 500 µM

Follow-up item: "Cc1ccc(C(=O)c2cc(O)c(O)c([N+](=O)[O-])c2)cc1"
> 500 µM

What would you report for CC1(C)O[C@@H]2[C@@H](CO[C@@]3(COS(N)(=O)=O)OC(C)(C)O[C@@H]23)O1 [TOPIRAMATE] ?
> 500 µM

Same thing, different compound: NC(=O)C[S+]([O-])C(c1ccccc1)c1ccccc1 (stereo not given)
> 500 µM

Follow-up item: "O=C1Cc2cc(CCN3CCN(c4nsc5ccccc45)CC3)c(Cl)cc2N1"
1.05 µM

Subsequent entry: CN1CCN(C(=O)OC2c3nccnc3C(=O)N2c2ccc(Cl)cn2)CC1 (stereo not given)
219 µM

Proceed to "CN(C)CCc1c[nH]c2ccc(C[C@H]3COC(=O)N3)cc12"
> 500 µM

And what about the compound "O=C(O[C@@H]1C[C@@H]2C[C@H]3C[C@H](C1)N2CC3=O)c1c[nH]c2ccccc12" ?
195 µM

How about CC(C)CC(N(C)C)C1(c2ccc(Cl)cc2)CCC1 (stereo not given) ?
143 µM

And for "CCc1cc2c(s1)-n1c(C)nnc1CN=C2c1ccccc1Cl" ?
> 480 µM

Another compound to look at: COC(=O)C(c1ccccc1)C1CCCCN1 (stereo not given) [METHYLPHENIDATE]
411 µM

Do the same for "CCC(=O)O[C@](Cc1ccccc1)(c1ccccc1)[C@H](C)CN(C)C" please
250 µM

What about this compound? "CN(C)CCc1c[nH]c2ccc(Cn3cncn3)cc12"
> 500 µM

Also "COCCCC/C(=N\OCCN)c1ccc(C(F)(F)F)cc1" , if possible.
> 500 µM

Similarly, CCC1(c2cccc(O)c2)CCCCN(C)C1 (stereo not given) ?
> 500 µM

Here is the next compound: "Cc1nnc2n1-c1ccc(Cl)cc1C(c1ccccc1)=NC2"
213 µM

Request: "CN1C(=O)CN=C(c2ccccc2F)c2cc([N+](=O)[O-])ccc21"
54 µM

Would you mind doing NC(=O)OCC(COC(N)=O)c1ccccc1 [FELBAMATE] as well?
> 500 µM

Param item: "O=C1CN=C(c2ccccn2)c2cc(Br)ccc2N1"
334 µM

Another compound to look at: "Cc1ncc2n1-c1ccc(Cl)cc1C(c1ccccc1F)=NC2"
392 µM

Input O=C1CC[C@@]2(O)[C@H]3Cc4ccc(O)c5c4[C@@]2(CCN3CC2CC2)[C@H]1O5 [NALTREXONE]
> 500 µM

Same thing, different compound: "CCCCCc1cc(O)c2c(c1)OC(C)(C)[C@@H]1CCC(C)=C[C@@H]21"
> 500 µM

Entry to check: "O=C1NC(=O)C(c2ccccc2)(c2ccccc2)N1"
80 µM

Note, next up: "CCN[C@@H](C)Cc1cccc(C(F)(F)F)c1"
500 µM

Next compound: C=CC(N)CCC(=O)O (stereo not given)
> 500 µM

CCCN1C[C@H](CSC)C[C@@H]2c3cccc4[nH]cc(c34)C[C@H]21 [PERGOLIDE] ?
2.1 µM

And "Cc1cc2c(s1)Nc1ccccc1N=C2N1CCN(C)CC1" ?
> 500 µM

Now consider CN1C2CCCC1CC(NC(=O)c1nn(C)c3ccccc13)C2 (stereo not given) .
> 500 µM

Field entry: NC(=O)N1c2ccccc2CC(=O)c2ccccc21 [OXCARBAZEPINE]
245 µM

What about "Fc1ccc([C@@H]2CCNC[C@H]2COc2ccc3c(c2)OCO3)cc1" ?
> 500 µM

And for NC(=O)N1c2ccccc2C=Cc2ccccc21 [CARBAMAZEPINE] ?
> 490 µM

What do you have for CC(N)Cc1ccccc1 (stereo not given) ?
> 500 µM

Try the compound "Cc1ccsc1C(=CCCN1CCC[C@@H](C(=O)O)C1)c1sccc1C"
> 500 µM

Lookup COc1cccc(C2(O)CCCCC2CN(C)C)c1 (stereo not given)
> 500 µM

Ok, now "CNS(=O)(=O)CCc1ccc2[nH]cc(C3CCN(C)CC3)c2c1"
> 500 µM

Can you check "NCC1(CC(=O)O)CCCCC1" next?
> 500 µM

Also need NS(=O)(=O)Cc1noc2ccccc12 [ZONISAMIDE] , thanks.
> 500 µM

Also "CN1[C@@H]2CC[C@H]1C[C@@H](OC(=O)c1c[nH]c3ccccc13)C2" , if possible.
> 500 µM

Check "Fc1ccccc1C1=NCC(=S)N(CC(F)(F)F)c2ccc(Cl)cc21" too.
0.3 µM

---

Consider the following compounds; for each one, report its solubility at 24 h, 600 µM.
experiment_notes: Solubility of the compound in 0.1 M phosphate buffer at 600 uM at pH 7.4 after 24 hrs by LC/MS/MS analysis
condition_description: 0.1 M phosphate buffer, pH 7.4

Requested read-out: solubility at 24 h, 600 µM. Entry: "CN1CCC[C@@H]1Cc1c[nH]c2ccc(CCS(=O)(=O)c3ccccc3)cc12"
> 500 µM

Also need Oc1ccc2c(c1)[C@@]13CCCC[C@@]1(O)[C@@H](C2)N(CC1CCC1)CC3 [BUTORPHANOL] , thanks.
> 500 µM

Also need CCCC(CCC)C(=O)O [VALPROIC ACID] , thanks.
> 500 µM

---

experiment_notes: Solubility of the compound in 0.1 M phosphate buffer at 600 uM at pH 7.4 after 24 hrs by LC/MS/MS analysis
condition_description: 0.1 M phosphate buffer, pH 7.4
Could you please report measured solubility at 24 h, 600 µM for the items listed next?

Quick check: solubility at 24 h, 600 µM of CCCN(CCC)CCc1cccc2c1CC(=O)N2 [ROPINIROLE] ?
> 500 µM

Please do the same for CCN1CCC[C@H]1CNC(=O)c1c(OC)ccc(Br)c1OC [REMOXIPRIDE] as well.
> 500 µM

Can you handle "CNS(=O)(=O)Cc1ccc2[nH]cc(CCN(C)C)c2c1" next?
> 500 µM

Here is the next compound: CN1CCN(C2=Nc3cc(Cl)ccc3Nc3ccccc32)CC1 [CLOZAPINE]
> 420 µM

Follow-up entry: CNCC[C@@H](Oc1ccccc1C)c1ccccc1 [ATOMOXETINE]
> 500 µM

Now the compound C[C@@](Cc1ccc(O)c(O)c1)(NN)C(=O)O.O [CARBIDOPA]
> 500 µM
